All values here come from patent US11986478B2.

Target: SARS-CoV-2 PLpro (Severe acute respiratory syndrome coronavirus 2, UniProt P0DTD1)
Test: biochemical
Format: biochemical
Measured attribute: IC50 (µM)
Number in µM, nothing else.

### Prompt Reported IC50, compound COc1cc2c(=O)[nH]c3c(C(=O)Nc4cc(Cl)ccc4C)sc(=S)n3c2cc1OC [Compound F0326] : ____
### Response 8.2
